These measurements were taken from ChEMBL document CHEMBL4020770.

Assayed target: Mu-type opioid receptor (Homo sapiens, UniProt P35372)
Sequence (P35372 whole entry): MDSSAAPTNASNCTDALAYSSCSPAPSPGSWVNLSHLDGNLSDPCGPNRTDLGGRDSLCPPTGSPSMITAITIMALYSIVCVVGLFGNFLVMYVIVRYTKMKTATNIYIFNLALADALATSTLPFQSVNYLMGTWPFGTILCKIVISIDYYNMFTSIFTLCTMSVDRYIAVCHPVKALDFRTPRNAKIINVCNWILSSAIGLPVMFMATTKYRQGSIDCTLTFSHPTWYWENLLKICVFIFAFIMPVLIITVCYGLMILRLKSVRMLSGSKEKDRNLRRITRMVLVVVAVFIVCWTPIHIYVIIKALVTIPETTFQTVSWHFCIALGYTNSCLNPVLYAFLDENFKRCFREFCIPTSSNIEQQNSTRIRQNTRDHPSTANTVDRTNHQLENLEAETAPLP
Measurement description: Intrinsic activity at recombinant human mu opioid receptor expressed in CHOK1 cells by [35S]GTPgammaS binding assay relative to DAMGO
Format: functional, cell-based
Would you kindly list Intrinsic activity for each of these molecules?
Numbers only, in %.

Recorded results for 5 molecules are shown here.
molecule="Oc1cccc(C2C[C@H]3CC[C@H](C2)N3CC(O)Cc2ccccc2)c1 (relative stereo; 23a)" unit_abbrev=% value_reported=1
molecule="NC(=O)c1cccc(C2C[C@H]3CC[C@H](C2)N3CC(=O)C2CCCCC2)c1 (relative stereo; 30b)" unit_abbrev=% value_reported=93
molecule="O=C1c2ccccc2C(=O)N1CCCCN1[C@@H]2CC[C@@H]1CC(c1cccc(O)c1)C2 (relative stereo; 21b)" unit_abbrev=% value_reported=97
molecule="Oc1cccc(C2C[C@H]3CC[C@H](C2)N3CCCOc2ccccc2)c1 (relative stereo; 19a)" unit_abbrev=% value_reported=9
molecule="NC(=O)c1cccc(C2C[C@H]3CC[C@H](C2)N3CC(O)Cc2ccccc2)c1 (relative stereo)" unit_abbrev=% value_reported=3

Fill in Intrinsic activity for each of the 8 molecules listed.
1. NC(=O)c1cccc(C2C[C@H]3CC[C@H](C2)N3CCCOc2ccccc2)c1 (relative stereo)
2. NC(=O)c1cccc(C2C[C@H]3CC[C@H](C2)N3CC(O)Cc2ccccc2)c1 (stereo in doubt; 31b)
3. Oc1cccc(C2CC3CCC(C2)N3CCCc2ccccc2)c1 (mixture of isomers)
4. Oc1cccc(C2C[C@H]3CC[C@H](C2)N3CCCc2ccccc2)c1 (relative stereo; 12a)
5. CC(C)(C)c1ccc(CN2[C@@H]3CC[C@@H]2CC(c2cccc(O)c2)C3)cc1 (relative stereo; 20b)
6. NC(=O)c1cccc(C2C[C@H]3CC[C@H](C2)N3CCCc2ccccc2)c1 (relative stereo; 24b)
7. CCCCCCCN1[C@@H]2CC[C@@H]1CC(c1cccc(C(N)=O)c1)C2 (stereo not given in full)
8. CC(C)(C)c1ccc(CN2[C@@H]3CC[C@@H]2CC(c2cccc(C(N)=O)c2)C3)cc1 (relative stereo; 28b)

Result:
1. 0
2. 39
3. 22
4. 22
5. 97
6. 48
7. 38
8. 73

Fill in Intrinsic activity for each of the 4 molecules listed.
1. CC(C)(C)c1ccc(CN2[C@@H]3CC[C@@H]2CC(c2cccc(C(N)=O)c2)C3)cc1 (relative stereo; 28a)
2. NC(=O)c1cccc(C2C[C@H]3CC[C@H](C2)N3Cc2c(F)cccc2F)c1 (relative stereo; 26b)
3. CCCCCCCN1[C@@H]2CC[C@@H]1CC(c1cccc(O)c1)C2 (relative stereo; 17a)
4. Oc1cccc(C2C[C@H]3CC[C@H](C2)N3Cc2c(F)cccc2F)c1 (relative stereo; 18b)

Result:
1. 92
2. 19
3. 26
4. 48

Fill in Intrinsic activity for each of the 2 molecules listed.
1. O=C1c2ccccc2C(=O)N1CCCCN1[C@@H]2CC[C@@H]1CC(c1cccc(O)c1)C2 (relative stereo; 21a)
2. NC(=O)c1cccc(C2C[C@H]3CC[C@H](C2)N3CC(=O)C2CCCCC2)c1 (relative stereo; 30a)

Result:
1: 26; 2: 41
